System: Differentiated U937 cells
experiment: MTT assay (loss of cell viability)
Assay type: cell-based, human
setupConditions: loss of cell viability; 24 hr; 10 ug/ml
measuredParameter: MTT 24 hr

# compound, MTT 24 hr
records = [
    ("COCCOCCSCC(=O)Nc1cc(COc2ccc(NC(=O)Nc3cc(C(C)(C)C)nn3-c3ccc(C)cc3)c3ccccc23)ccn1 [Example 30]", "− (− <30%)"),
    ("COCCN(CCOC)CC(=O)Nc1cc(COc2ccc(NC(=O)Nc3cc(C(C)(C)C)nn3-c3ccc(C)cc3)c3ccccc23)ccn1 [Example 33]", "− (− <30%)"),
    ("CNC(=O)Nc1cnccc1COc1ccc(NC(=O)Nc2cc(C(C)(C)C)nn2-c2ccc(C)cc2)c2ccccc12 [Example 34]", "− (− <30%)"),
    ("COCC(=O)Nc1cc(COc2ccc(NC(=O)Nc3cc(C(C)(C)C)nn3-c3ccc(C)cc3)c3ccccc23)ccn1 [Example 1]", "− (− <30%)"),
    ("Cc1ccc(-n2nc(C(C)(C)C)cc2NC(=O)Nc2ccc(OCc3ccnc(NC(=O)CN4CCCC4)c3)c3ccccc23)cc1 [Example 22]", "− (− <30%)"),
]

Moving on to another compound below.
Lookup: Recorded MTT 24 hr for CNC(=O)Nc1cc(COc2ccc(NC(=O)Nc3cc(C(C)(C)C)nn3-c3ccc(C)cc3)c3ccccc23)ccn1 [Example 2] , please?
Found: − (− <30%)

* * *

System: Differentiated U937 cells
experiment: MTT assay (loss of cell viability)
Assay type: cell-based, human
setupConditions: loss of cell viability; 4 hr; 10 ug/ml
measuredParameter: MTT 4 hr

Examples from the recorded data:
# compound, MTT 4 hr
measured = [
    ("CN[C@@H](C)C(=O)Nc1cc(COc2ccc(NC(=O)Nc3cc(C(C)(C)C)nn3-c3ccc(C)cc3)c3ccccc23)ccn1 [Example 9]", "− (− <30%)"),
    ("Cc1ccc(-n2nc(C(C)(C)C)cc2NC(=O)Nc2ccc(OCc3ccnc(NC(=O)N4CCN(C)CC4)c3)c3ccccc23)cc1 [Example 12]", "− (− <30%)"),
    ("COCC(=O)Nc1cc(OCCc2ccc(NC(=O)Nc3cc(C(C)(C)C)nn3-c3ccc(C)cc3)c3ccccc23)ccn1 [Example 43]", "− (− <30%)"),
    ("COCCN(CCOC)CC(=O)Nc1cc(COc2ccc(NC(=O)Nc3cc(C(C)(C)C)nn3-c3ccc(C)cc3)c3ccccc23)ccn1 [Example 33]", "− (− <30%)"),
    ("Cc1ccc(-n2nc(C(C)(C)C)cc2NC(=O)Nc2ccc(OCc3ccnc(NC(=O)CN4CCCC4)c3)c3ccccc23)cc1 [Example 22]", "− (− <30%)"),
]

Switching to the query record.
Lookup: What measured MTT 4 hr is associated with COCCOCC(=O)Nc1cnccc1COc1ccc(NC(=O)Nc2cc(C(C)(C)C)nn2-c2ccc(C)cc2)c2ccccc12 [Example 36] on Differentiated U937 cells?
Found: − (− <30%)

* * *

systemName: UniProt Q16539
Sequence (Q16539 whole entry): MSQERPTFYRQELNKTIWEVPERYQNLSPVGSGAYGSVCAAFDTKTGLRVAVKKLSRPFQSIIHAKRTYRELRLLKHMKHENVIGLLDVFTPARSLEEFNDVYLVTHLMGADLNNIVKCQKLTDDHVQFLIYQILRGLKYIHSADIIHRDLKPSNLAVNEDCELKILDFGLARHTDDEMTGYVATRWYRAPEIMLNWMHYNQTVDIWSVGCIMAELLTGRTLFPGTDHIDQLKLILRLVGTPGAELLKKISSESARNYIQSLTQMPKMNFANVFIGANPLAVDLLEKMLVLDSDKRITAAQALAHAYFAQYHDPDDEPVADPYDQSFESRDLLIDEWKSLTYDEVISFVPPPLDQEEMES
pIC50: −log10 of the molar value.
measuredParameter: pIC50

# compound, reading
measured = [
    ("COCC(=O)Nc1cc(C(C)(C)COc2ccc(NC(=O)Nc3cc(C(C)(C)C)nn3-c3ccc(C)cc3)c3ccccc23)ccn1", "> 6.30"),
    ("CO[C@H](C)C(=O)Nc1cc(COc2ccc(NC(=O)Nc3cc(C(C)(C)C)nn3-c3ccc(C)cc3)c3ccccc23)ccn1", "> 8.00"),
    ("COCC(=O)Nc1cc(C(C)COc2ccc(NC(=O)Nc3cc(C(C)(C)C)nn3-c3ccc(C)cc3)c3ccccc23)ccn1 (stereo not shown)", "> 6.30"),
    ("Cc1ccc(-n2nc(C(C)(C)C)cc2NC(=O)Nc2ccc(OCc3ccnc(NC(=O)CCCN(C)C)c3)c3ccccc23)cc1", "> 6.30"),
    ("COCC(=O)Nc1nccc(COc2ccc(NC(=O)Nc3cc(C(C)(C)C)nn3-c3ccc(C)cc3)c3ccccc23)n1", "> 8.00"),
    ("Cc1ccc(-n2nc(C(C)(C)C)cc2NC(=O)Nc2ccc(OCc3ccnc(NC(=O)CN4CCCC4)c3)c3ccccc23)cc1", "> 8.00"),
]

Alright, here's another compound for you.
Lookup: Quick one: pIC50 of Cc1ccc(-n2nc(C(C)(C)C)cc2NC(=O)Nc2ccc(OCc3ccnc(NC(=O)CO)c3)c3ccccc23)cc1 ?
Found: > 8.00
